// Ki lookup, one value per entry
Target: Cholinesterase (Equus caballus, UniProt P81908)
Sequence (P81908 whole entry): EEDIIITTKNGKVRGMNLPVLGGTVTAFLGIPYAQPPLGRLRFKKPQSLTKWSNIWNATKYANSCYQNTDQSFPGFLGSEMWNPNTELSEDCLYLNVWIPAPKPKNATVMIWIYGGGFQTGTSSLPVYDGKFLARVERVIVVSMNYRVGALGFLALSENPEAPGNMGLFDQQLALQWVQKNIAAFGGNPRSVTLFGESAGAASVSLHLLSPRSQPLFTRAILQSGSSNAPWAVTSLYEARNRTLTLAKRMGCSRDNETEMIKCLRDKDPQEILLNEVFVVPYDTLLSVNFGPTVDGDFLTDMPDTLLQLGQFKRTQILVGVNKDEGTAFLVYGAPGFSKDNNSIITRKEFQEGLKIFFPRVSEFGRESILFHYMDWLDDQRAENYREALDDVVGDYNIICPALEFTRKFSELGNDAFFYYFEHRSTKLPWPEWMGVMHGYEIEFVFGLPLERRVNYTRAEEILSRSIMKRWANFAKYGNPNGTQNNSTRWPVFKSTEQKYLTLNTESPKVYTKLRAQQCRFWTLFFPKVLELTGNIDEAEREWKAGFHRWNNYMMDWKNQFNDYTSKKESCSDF
Assay: Non-competitive inhibition of equine serum BuChE assessed as enzyme-inhibitor complex using p-nitrophenyl butyrate as substrate by Lineweaver-Burk plot analysis
Remember to follow the number with its unit.

Example entries begin here.
c1ccc([Se]CCCCCCNc2c3c(nc4ccccc24)CCCC3)cc1 57 nM
COc1ccc(NC(=[Se])NCCCCCCNc2c3c(nc4ccccc24)CCCC3)cc1 28.6 nM

Reported Ki ( Cc1ccc(NC(=[Se])NCCCCCCNc2c3c(nc4ccccc24)CCCC3)cc1 ) = 10.7 nM

###

Assay: Selectivity index, ratio of Ki for equine serum BuChE assessed as enzyme-substrate-inhibitor complex to Ki for electric eel AChE assessed as enzyme-substrate-inhibitor complex
value type: Ratio Ki
Hey, just send me the number, nothing else.

Example entries begin here.
c1ccc2c(NCCCCCCSSCCCCCCNc3c4c(nc5ccccc35)CCCC4)c3c(nc2c1)CCCC3 4.7
c1ccc2c(NCCCCCSSCCCCCNc3c4c(nc5ccccc35)CCCC4)c3c(nc2c1)CCCC3 74
c1ccc2c(NCCCCCC[Se][Se]CCCCCCNc3c4c(nc5ccccc35)CCCC4)c3c(nc2c1)CCCC3 2.8
c1ccc([Se]CCCCCCNc2c3c(nc4ccccc24)CCCC3)cc1 7.1
COc1ccc(NC(=[Se])NCCCCCCNc2c3c(nc4ccccc24)CCCC3)cc1 1.1

Reported Ratio Ki ( O=C(C[Se]c1ccccc1)Nc1c2c(nc3ccccc13)CCCC2 ) = 0.5

###

// Ki lookup, one value per entry
Target: Acetylcholinesterase (Electrophorus electricus)
Sequence (O42275 whole entry): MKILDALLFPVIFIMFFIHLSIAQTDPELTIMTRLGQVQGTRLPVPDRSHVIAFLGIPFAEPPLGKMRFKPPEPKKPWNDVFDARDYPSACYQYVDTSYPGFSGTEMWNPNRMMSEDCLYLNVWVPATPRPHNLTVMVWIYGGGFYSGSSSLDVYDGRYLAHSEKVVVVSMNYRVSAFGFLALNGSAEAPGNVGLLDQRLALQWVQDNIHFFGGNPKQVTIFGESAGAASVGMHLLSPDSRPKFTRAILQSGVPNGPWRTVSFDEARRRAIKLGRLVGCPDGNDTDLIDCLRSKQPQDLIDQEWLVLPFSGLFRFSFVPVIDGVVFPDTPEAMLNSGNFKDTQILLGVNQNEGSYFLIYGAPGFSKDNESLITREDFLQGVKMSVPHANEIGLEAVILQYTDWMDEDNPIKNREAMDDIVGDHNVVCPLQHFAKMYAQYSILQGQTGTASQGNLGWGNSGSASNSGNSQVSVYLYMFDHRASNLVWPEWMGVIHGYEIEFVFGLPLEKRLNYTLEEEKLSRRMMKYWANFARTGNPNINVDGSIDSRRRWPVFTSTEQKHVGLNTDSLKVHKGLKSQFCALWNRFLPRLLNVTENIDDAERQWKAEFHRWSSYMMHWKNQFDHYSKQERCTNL
Assay: Non-competitive inhibition of electric eel AChE assessed as enzyme-substrate-inhibitor complex using p-nitrophenyl acetate as substrate by Lineweaver-Burk plot analysis

Example entries begin here.
COc1ccc(NC(=[Se])NCCCCCCNc2c3c(nc4ccccc24)CCCC3)cc1 26.6 nM
c1ccc2c(NCCCCCCSSCCCCCCNc3c4c(nc5ccccc35)CCCC4)c3c(nc2c1)CCCC3 14.8 nM
N#CSCCCCCNc1c2c(nc3ccccc13)CCCC2 50.1 nM

Next molecule, Ki to be filled in.
Entry c1ccc2c(NCCCCCC[Se][Se]CCCCCCNc3c4c(nc5ccccc35)CCCC4)c3c(nc2c1)CCCC3 : Ki on Acetylcholinesterase (Electrophorus electricus) = 26.3 nM

###

Target: Acetylcholinesterase (Electrophorus electricus)
Assay: Non-competitive inhibition of electric eel AChE assessed as enzyme-inhibitor complex using p-nitrophenyl acetate as substrate by Lineweaver-Burk plot analysis
value type: pKi
pKi here is simply -log10 of the concentration when that concentration is written in mol/L.

Reported pKi ( COc1ccc(NC(=[Se])NCCCCCCNc2c3c(nc4ccccc24)CCCC3)cc1 ) = 7.58

Reported pKi ( c1ccc2c(NCCCCCC[Se][Se]CCCCCCNc3c4c(nc5ccccc35)CCCC4)c3c(nc2c1)CCCC3 ) = 7.58

Reported pKi ( c1ccc2c(NCCCCCCSSCCCCCCNc3c4c(nc5ccccc35)CCCC4)c3c(nc2c1)CCCC3 ) = 7.83

Reported pKi ( N#CSCCCCCNc1c2c(nc3ccccc13)CCCC2 ) = 7.30

###

# collection of GI50 values tested on HeLa
Give the number; µM is assumed, so skip it.

Reported GI50 ( c1ccc2c(NCCCCCSSCCCCCNc3c4c(nc5ccccc35)CCCC4)c3c(nc2c1)CCCC3 ) = 1

Reported GI50 ( N#CSCCCCCNc1c2c(nc3ccccc13)CCCC2 ) = 11

Reported GI50 ( O=C(C[Se]c1ccccc1)Nc1c2c(nc3ccccc13)CCCC2 ) = 32

Reported GI50 ( Cc1ccc(NC(=[Se])NCCCCCCNc2c3c(nc4ccccc24)CCCC3)cc1 ) = 4.1
